Dog PPB (FUplasma), fraction unbound in plasma (fraction unbound) values, listed per item
# tgt: dog plasma proteins
# method-notes: plasma protein binding, ultracentrifugation, LC-MS/MS
Starred links: 1 amine or outer side, 2 acyl side, 3 side chain; linkers in the order of their positions; H or OH if unused. Non-standard residues stand in square brackets, D forms with d. Groups on a side chain read outwards from the residue. No end group written: not given here. *: point of attachment. C18 diacid = O=C(O)CCCCCCCCCCCCCCCCC(=O)*; C17 diacid = O=C(O)CCCCCCCCCCCCCCCC(=O)*; γGlu = O=C(O)[C@H](CCC(=O)[*:2])N[*:1]; NMeY = CN[C@@H](Cc1ccc(O)cc1)C(=O)O; AEEA = NCCOCCOCC(=O)O; Aib = CC(C)(N)C(=O)O

For [NMeY][Aib]EGTFISDYSIALDR[Aib]AQ[Aib]K([2OEGgEgE-C17 diacid])FVNWLLAQR-NH2 [Compound No. 8] the binder record lists Dog PPB (FUplasma), fraction unbound in plasma (fraction unbound) as 0.0016

For [NMeY][Aib]EGTFISDYSIALDR[Aib]HQ[Aib]NFVNWLLAK([AEEA-AEEA-γGlu-γGlu-C18 diacid])R-NH2 [Compound No. 19] the binder record lists Dog PPB (FUplasma), fraction unbound in plasma (fraction unbound) as 0.0005

Read the next record carefully.
For [NMeY][Aib]EGTFISDYSIALDR[Aib]AQ[Aib]K([AEEA-AEEA-γGlu-γGlu-C18 diacid])FVNWLLAQKG-OH [Compound No. 41] the binder record lists Dog PPB (FUplasma), fraction unbound in plasma (fraction unbound) as 0.0007
